test system: OVCAR-3 ovarian; assay: NCI tumour cell line growth inhibition, 48 h
Measurement Label: TGI

[
  {
    "Compound": "CN1C(=O)C2C=C3CCCCC3=CC2N(C)C1=O (stereo not drawn)",
    "TGI": "> 100 µM"
  },
  {
    "Compound": "CCOP(=O)(OCC)/C(C#N)=C/c1ccnc2ccccc12",
    "TGI": "70.6 µM"
  },
  {
    "Compound": "Cc1cccc2c(=O)c3cccc([C@@H](C)C(=O)O)c3oc12",
    "TGI": "> 100 µM"
  }
]

### Prompt # query: TGI | item `O=C1OC(c2ccccc2)=N/C1=C\c1cccc(F)c1` | system: OVCAR-3 ovarian
### Response > 100 µM

### Prompt GET /values?readout=TGI&system=OVCAR-3 ovarian&item= `CN1CC(=O)N(C)c2nc[nH]c2C1=O`
### Response > 100 µM

### Prompt What value of TGI on OVCAR-3 ovarian does `CC1(C)OC(=O)C=C([O-])O1.CC1(C)OC(=O)C=C([O-])O1.CC[O-].CC[O-].[Ti+4]` have?
### Response > 100 µM

### Prompt Record lookup: for OVCAR-3 ovarian, what TGI belongs to `COc1cc(C(=O)Nc2cc(C(N)=O)cc(OC)c2OC)cc(NC(=O)/C=C/c2ccccc2)c1OC` ?
### Response > 100 µM

### Prompt Find the measured TGI: item Cc1ccc(S(=O)(=O)NNC2Oc3cc4c(cc3C(c3ccccc3O)C2C)OCO4)cc1 (stereo not drawn) , target or system OVCAR-3 ovarian.
### Response 23.7 µM

### Prompt Recall the recorded TGI for CCC(=O)C(C(C)/C=C/CCSc1ccccc1)C(O)CCCCCC(=O)OC (stereo not drawn) with OVCAR-3 ovarian and state it.
### Response > 100 µM

### Prompt Form: Entry = `Cn1c2ccccc2c(=O)c2[nH]c3ccccc3c21` | System = OVCAR-3 ovarian | TGI = ____
### Response > 100 µM

### Prompt Identify the measured TGI of `Cc1ccc(-c2nc(N3CCCNCC3)c3oc(-c4ccc(C)cc4)nc3n2)cc1` for OVCAR-3 ovarian.
### Response 3.1 µM

### Prompt Provide the documented TGI with OVCAR-3 ovarian as the system for `COc1ccc(N=[N+]([O-])c2ccc(OC)cc2)cc1`
### Response > 100 µM

### Prompt TGI of O=C(CC1C(=O)Nc2ccccc2S1=O)Nc1ccc(Cl)cc1 (stereo not drawn) on OVCAR-3 ovarian?
### Response > 100 µM

---

Here, each record is paired with measured TGI data.
test system: KM12 colon; assay: NCI tumour cell line growth inhibition, 48 h

### Prompt Tell me the measured TGI of COc1cc(C2C(Cl)C(=O)N2NC(=O)c2ccc(NC(C)=O)cc2OC)ccc1O (stereo not given) , please.
### Response 68 µM

### Prompt Name the reported TGI value associated with the molecule `CCN(CC)CCSCCCNc1c2ccc(Cl)cc2nc2ccc(OC)cc12`
### Response 5.03 µM

### Prompt Looking for the measured TGI of `C=CCn1c(-c2ccc(-c3cs/c(=N\N=O)n3CC=C)cc2)cs/c1=N\N=O` , can you help?
### Response > 100 µM

### Prompt Which TGI is reported for this molecule? `COc1ccc(CCNCCCC2c3ccccc3-c3ccccc32)cc1OC`
### Response 30.4 µM

---

test system: BT-549 breast; assay: NCI tumour cell line growth inhibition, 48 h
Reported TGI is given for each of the following compounds.
State the answer as a number, implicitly in µM.

[
  {
    "Compound": "C=CCCCc1ccc(C(O)CCCCCCCCCCCC)o1 (stereo not drawn)",
    "Units": "µM",
    "Value Reported": 43.3
  }
]

Next up:
### Prompt Request body: readout TGI, system BT-549 breast, query `OCCN1CCN(CC/C=C2\c3ccccc3Sc3ccc(Cl)cc32)CC1` . Return the value.
### Response 22.4

---

Below are GI50 values measured for MDA-MB-435.

Please review the entries below; each comes with its answer.
[
  {
    "Molecule Smiles": "COc1ccc2nc(NC(=O)c3cccnc3Nc3cc(OC)c(OC)c(OC)c3)sc2c1",
    "GI50": "1.85 µM"
  },
  {
    "Molecule Smiles": "Cc1nc(Nc2nc3ccccc3o2)nc(-c2cccc([N+](=O)[O-])c2)c1C(=O)Nc1ccc(F)c(Cl)c1",
    "GI50": "2.16 µM"
  },
  {
    "Molecule Smiles": "[Cl][Cd][Cl]",
    "GI50": "8.26 µM"
  }
]

### Prompt I'm curious: which GI50 was measured for `C=C1c2c(Cl)ccc(O)c2C(O)=C2C(=O)[C@]3(O)C(O)=C(C(N)=O)C(=O)[C@@H](N(C)C)[C@@H]3[C@@H](O)[C@H]12` tested on MDA-MB-435?
### Response 1.53 µM

### Prompt Can you look up GI50 on MDA-MB-435 for `Cc1c(Sc2ccccc2)[n+](=O)c2cc(Cl)c(Cl)cc2n1[O-]` ?
### Response 95.6 µM

### Prompt Notebook entry, MDA-MB-435 assay: GI50 of `Cn1cnc([N+](=O)[O-])c1Sc1ncn[nH]1` = ?
### Response > 100 µM

### Prompt Lab note: need GI50 for `COc1ccc(OC)c(Nc2nc(-c3c(C)nc4sccn34)cs2)c1` on MDA-MB-435, anyone have it?
### Response > 100 µM

### Prompt # returns recorded GI50 (system: MDA-MB-435) for `COc1ccc(Nc2c3ccccc3nc3[nH]c4ccccc4c23)cc1`
### Response 8.92 µM

### Prompt Find GI50 (MDA-MB-435) for the entry `CCN(CC)CCSCCCNc1c2ccc(Cl)cc2nc2ccc(OC)cc12`
### Response 1.46 µM

### Prompt Missing value: GI50, MDA-MB-435, entry `O=C1NCCS(=O)(=O)/C1=C\C=C\c1cccc(C(F)(F)F)c1` . Fill in?
### Response 1.81 µM

### Prompt For MDA-MB-435, provide GI50 of `ClCc1ccc(Cn2cnc3c(Cl)nc(Cl)nc32)cc1` please.
### Response 12.6 µM

---

Quick record: GI50, OVCAR-5 ovarian.

### Prompt So what GI50 did `COc1cc2c3c(n(CCCN=[N+]=[N-])c(=O)c2cc1OC)-c1ccc(N(C)C)cc1C3=O` get with OVCAR-5 ovarian?
### Response > 100 µM

### Prompt Reported GI50 for OVCAR-5 ovarian, given `Cn1cnc([N+](=O)[O-])c1Sc1ncn[nH]1` ?
### Response > 100 µM

### Prompt Missing value: GI50, OVCAR-5 ovarian, entry `Cn1c(=O)c(Oc2ccc(F)cc2F)cc2cnc(NCCS(C)(=O)=O)nc21` . Fill in?
### Response > 25 µM

### Prompt What value of GI50 on OVCAR-5 ovarian does `CN(/N=N/c1nc(OCc2ccccc2)c2[nH]cnc2n1)C(=O)Oc1ccc([N+](=O)[O-])cc1` have?
### Response 11.5 µM

### Prompt Write down the reported GI50 of `COc1ccc(-c2nn(-c3cccc(NC(=O)c4ccc(N5CCOCC5)c(C(F)(F)F)c4)c3)cc2-c2ccncc2)cc1Cl` , test system: OVCAR-5 ovarian.
### Response > 50 µM

### Prompt // fetch OVCAR-5 ovarian GI50 for `N#Cc1cc(S(=O)(=O)Nc2nc3ccccc3s2)c(SCc2ccccc2)cc1Cl`
### Response 23.8 µM

### Prompt Look up GI50 with OVCAR-5 ovarian for this compound: `ClCc1ccc(Cn2cnc3c(Cl)nc(Cl)nc32)cc1`
### Response 18.2 µM

### Prompt Lab request: please report GI50 under test system OVCAR-5 ovarian for `CN(C)CCN1C(=O)c2cccc3cccc(c23)C1=O`
### Response 18.1 µM

### Prompt Write down the reported GI50 of `Cc1c(Sc2ccccc2)[n+](=O)c2cc(Cl)c(Cl)cc2n1[O-]` , test system: OVCAR-5 ovarian.
### Response > 100 µM

### Prompt // map `COc1cc(Cl)cc(-c2nn(-c3cccc(NC(=O)Nc4ccc(Cl)c(C(F)(F)F)c4)c3)cc2-c2ccncc2)c1` to recorded GI50 (system: OVCAR-5 ovarian)
### Response 2.13 µM

---

Below, each entry is listed alongside its reported TGI.
test system: M14 melanoma; assay: NCI tumour cell line growth inhibition, 48 h
Report the figure in µM without appending any unit label.

[
  {
    "Molecule Smiles": "CC1(C)O[C@@H](CBr)C[C@H](C[C@H]2C[C@@H](O)C[C@@H](CCOCc3ccccc3)O2)O1",
    "Units": "µM",
    "Value Reported": 50.2
  }
]

### Prompt Form field: reported TGI of `C=CCN1CN(c2ccccc2)C2(CCN(CCCC3(c4ccc(F)cc4)OCCO3)CC2)C1=O`
### Response 30.6
